# target_of_assay: T1, PUF4 RNA-binding domain (Saccharomyces cerevisiae, UniProt P25339 537-888)
# T1 sequence: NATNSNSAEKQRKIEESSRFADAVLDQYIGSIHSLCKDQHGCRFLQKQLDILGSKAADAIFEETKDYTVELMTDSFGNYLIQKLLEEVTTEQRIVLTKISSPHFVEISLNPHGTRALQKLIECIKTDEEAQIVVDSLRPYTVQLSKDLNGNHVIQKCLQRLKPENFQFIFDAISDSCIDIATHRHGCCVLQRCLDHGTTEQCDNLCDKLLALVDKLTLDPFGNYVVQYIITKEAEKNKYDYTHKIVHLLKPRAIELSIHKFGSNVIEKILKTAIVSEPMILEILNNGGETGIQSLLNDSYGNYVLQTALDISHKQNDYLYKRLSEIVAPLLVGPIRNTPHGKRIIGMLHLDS
# method_notes: Mg; RNA-MaP; 20 mM Na-HEPES pH 7.4, 30 mM KOAc, 0.75 mM MgCl2, 0.1% Tween-20, 5% glycerol, 0.1 mg/mL BSA, 2 mM DTT; 25 C; 0.0125-409.6 nM protein
# test_settings: tags: N-His6-TEV cleaved; C-SNAP kept, Cy3B-labelled; label: tethered on chip by stalled RNA polymerase
pKd: −log10 of the molar value.
endpoint: pKd

INSERT INTO assay_data (binder, endpoint, qualifying_sign, quantitative_readout) VALUES
  ('Ic_S4_P4E.1_K4.1_C4.1_H4.1_A4.1_[T5G]_[A6T]_F4.1_[T8C]_[A9T]_T4.1 (ssRNA) RNA: UUUGACAACUGAUCGUUCUUUCUUGUAGUUCUUUCUUUCUCGAUCAGUUGUCUUU', 'pKd', '=', 7.02),
  ('Ic_S4_P5E.1_K5.1_C5.1_H5.1_A5.1_[T5C]_[T6C]_[A7G]_F5.1_[T8G]_[T9C]_[A10C]_T5.1 (ssRNA) RNA: UUUGACAACUGAUCGUUCUUUCUUGUACCGGCCUUCUUUCUCGAUCAGUUGUCUUU', 'pKd', '<', 5.64),
  ('Id_ii_S4_P5E.2_K5.1_C5.2_[C-2T]_[T-1G]_H5.1_A5.1_F5.1_T5.2_[T11G]_[A12C] (ssRNA) RNA: UUUGACAACUGAUCGUUCUUUCUUGUGUAUUAUUAGCUUCUUUCUCGAUCAGUUGUCUUU', 'pKd', '=', 8.61),
  ('UCUCUUCAACACUAUUAAUUCUCUU (ssRNA) [Id_ii_S1_P4E.4_K4.3_C4.2_[T-1A]_H4.3_A4.1_F4.1_T4.2_[G10A]]', 'pKd', '<', 5.64),
  ('UCUCUUUGACACUAUACAUCUCUU (ssRNA) [Id_ii_S1_P3E.4_K3.3_C3.2_[C-2T]_[T-1G]_H3.3_A3.1_F3.1_T3.2_[T9C]]', 'pKd', '<', 5.64),
  ('ACAAACCUCUAUAUAUAUAACAAAC (ssRNA) [Id_i_S3_P3E.6_K3.2_C3.3_[T-3C]_[C-2T]_[T-1C]_H3.2_A3.1_F3.1_T3.2]', 'pKd', '=', 6.66);
